Quick reference for Fold change among some binders
target: T1, human LAP-TGFB1 Fc fusion (human); assay: BLI off-rate screen
T1 construct: also called human LAP-TGFβ1-Fc; human LAP-TGFβ-Fc isoform 1
T1 sequence (chain, as listed by the source limits assumed): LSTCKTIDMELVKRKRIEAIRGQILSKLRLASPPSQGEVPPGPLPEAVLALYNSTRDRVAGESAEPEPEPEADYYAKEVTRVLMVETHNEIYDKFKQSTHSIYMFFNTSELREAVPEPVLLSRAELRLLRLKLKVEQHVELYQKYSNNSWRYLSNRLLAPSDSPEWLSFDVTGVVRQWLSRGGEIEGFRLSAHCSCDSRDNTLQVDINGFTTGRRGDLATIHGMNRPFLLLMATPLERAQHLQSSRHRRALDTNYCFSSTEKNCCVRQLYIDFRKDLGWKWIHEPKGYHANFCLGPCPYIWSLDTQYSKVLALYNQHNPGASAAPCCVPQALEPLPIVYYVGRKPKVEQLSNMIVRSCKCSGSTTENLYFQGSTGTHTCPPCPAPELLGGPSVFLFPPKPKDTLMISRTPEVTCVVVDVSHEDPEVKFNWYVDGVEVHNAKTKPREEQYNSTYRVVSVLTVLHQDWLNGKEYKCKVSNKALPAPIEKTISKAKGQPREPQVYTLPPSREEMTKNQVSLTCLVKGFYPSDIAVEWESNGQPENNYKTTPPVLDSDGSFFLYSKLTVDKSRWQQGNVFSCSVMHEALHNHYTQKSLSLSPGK
Unit fold implied. Number only.

VH G99Y (66BIT) (Fab, V domains shown) VH: EVQLVQSGAEVKKPGASVKVSCKASGYTFTSYWMHWVRQAPGQGLEWMGRIDPQSGGIKYAQKFQGRATLTVDTSTSTAYMELSRLRSDDTAVYYCARWDYGYYFDVWGQGTLVTVSS VL: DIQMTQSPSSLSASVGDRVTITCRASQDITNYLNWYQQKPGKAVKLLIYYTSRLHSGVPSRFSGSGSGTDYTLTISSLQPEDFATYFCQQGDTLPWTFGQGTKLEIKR
0.9

Could you now look at the following binder, please?
Give Fold change for VH T30Y (69BIT) (Fab, V domains shown) VH: EVQLVQSGAEVKKPGASVKVSCKASGYTFYSYWMHWVRQAPGQGLEWMGRIDPQSGGIKYAQKFQGRATLTVDTSTSTAYMELSRLRSDDTAVYYCARWDYGGYFDVWGQGTLVTVSS VL: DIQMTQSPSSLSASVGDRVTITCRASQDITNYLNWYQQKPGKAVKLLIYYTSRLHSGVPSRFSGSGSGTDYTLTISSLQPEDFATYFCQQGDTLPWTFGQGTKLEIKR 1.2
